Biological target: T1, HTRA3, P83110
T1 sequence (P83110 354-453, limits assumed, looked up): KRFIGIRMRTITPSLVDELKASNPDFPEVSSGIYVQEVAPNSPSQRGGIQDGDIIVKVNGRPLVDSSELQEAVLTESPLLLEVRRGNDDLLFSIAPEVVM
Assay: holdup assay
Design: key: below the threshold = too weak to quantify, mostly under pKd 3.1 to 4
Settings: plain residues with an end cap or a label only (N-terminal biotin on a linker: ado-ado)
Hi there, I'd appreciate the recorded pKd for every entry that follows.
Numbers only.

*Q* Return pKd (reported value) for this binder: RQKEVRESKC [SCN8A, Q9UQD0]
*A* 3.5

Now turn to the next binder.
*Q* Return pKd (reported value) for this binder: QSYPSKHDYV [CLDN18, P56856]
*A* 4.19

src = paper PMC9482650
